Data provenance is patent US4018775A.

Quick reference: LD50 at 168 h of the listed items.
Experiment: Acute toxicity in the 7 day test on mice
Assay type: in vivo
Settings: mouse, in vivo, po; male NMRI mice, intragastral (i.g.), 7 days observation
Recorded endpoint: LD50 at 168 h

{"Molecule": "CCOC(=O)C=C1SC(c2ccccc2)(N2CCCCC2)C(=O)N1C (centres unmarked)", "Endpoint result": "> 1600 mg/kg"}
{"Molecule": "CCOC(=O)C=C1SC(c2ccccc2)(N2CCCC2)C(=O)N1C (centres unmarked)", "Endpoint result": "> 1600 mg/kg"}
{"Molecule": "CCOC(=O)C=C1SC(c2ccccc2)(N(C)CCO)C(=O)N1CC (centres unmarked)", "Endpoint result": "> 1600 mg/kg"}
{"Molecule": "CCOC(=O)C=C1SC(CC)(c2ccccc2)C(=O)N1C (centres unmarked)", "Endpoint result": "~1600 mg/kg"}
{"Molecule": "CCOC(=O)C=C1SC(c2ccccc2)(N2CCCCC2)C(=O)N1CC (centres unmarked)", "Endpoint result": "> 1600 mg/kg"}
